Just for reference, patent US12616760B2 is where these values come from.

# test_system: Aβ40 (Homo sapiens)
# Construct: The extent of Aβ40 aggregation in the presence of increasing concentrations of azacyclopeptides
# Sequence (P05067 672-711 limits assumed): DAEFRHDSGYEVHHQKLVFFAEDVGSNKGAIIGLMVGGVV
# measurement_description: Thioflavin T (ThT) fluorescence assay of Aβ40 aggregation
# Format: biochemical
# setup_conditions: Aβ:peptide 1:1; ThT; 10 μM soluble Aβ40
Square brackets hold non-standard residues; d marks the D form. Peptide text beside a SMILES is read from it. Nle = CCCC[C@H](N)C(=O)O; azaGly = NNC(=O)O
measurement_name: Inhibition of amyloidogenic activity(%)
The answer is to be given in %; state only the numeric part.

Previously resolved entries follow.
| compound | Inhibition of amyloidogenic activity(%) |
| --- | --- |
| CCCC[C@@H]1NC(=O)[C@@H](CC(C)C)NC(=O)[C@H](CCCCN)NC(=O)[C@@H](CO)NC(=O)[C@H](Cc2c[nH]cn2)NC(=O)[C@@H](Cc2c[nH]c3ccccc23)NC1=O [Compound 1, reference compound] (cyclo(K[dL][Nle][dW]H[dS])) | 44.6 |
| CCCC[C@@H]1NC(=O)[C@@H](CC(C)C)NC(=O)[C@H](CCCCN)NC(=O)[C@@H](CO)NC(=O)[C@H](Cc2c[nH]cn2)NC(=O)NNC1=O [Compound 5, c(D-Leu-L-Nle-Gly*-L-His-D-Ser-L-Lys)] (cyclo(K[dL][Nle][azaGly]H[dS])) | 89.8 |
| CCCC[C@@H]1NC(=O)[C@@H](CC(C)C)NC(=O)[C@H](CCCCN)NC(=O)NNC(=O)[C@H](Cc2c[nH]cn2)NC(=O)[C@@H](Cc2c[nH]c3ccccc23)NC1=O [Compound 3, c(D-Leu-L-Nle-D-Trp-L-His-Gly*-L-Lys)] (cyclo(K[dL][Nle][dW]H[azaGly])) | 83.7 |
| CCCC[C@@H]1NC(=O)[C@@H](CC(C)C)NC(=O)[C@H](CCCCN)NC(=O)[C@@H](CO)NC(=O)NNC(=O)[C@@H](Cc2c[nH]c3ccccc23)NC1=O [Compound 4, c(D-Leu-L-Nle-D-Trp-Gly*-D-Ser-L-Lys)] (cyclo(K[dL][Nle][dW][azaGly][dS])) | 50.2 |

We next turn to a different compound, shown below.
Note down Inhibition of amyloidogenic activity(%) recorded for CCCC[C@@H]1NC(=O)[C@@H](CC(C)C)NC(=O)NNC(=O)[C@@H](CO)NC(=O)[C@H](Cc2c[nH]cn2)NC(=O)[C@@H](Cc2c[nH]c3ccccc23)NC1=O [Compound 2, c(D-Leu-L-Nle-D-Trp-L-His-D-Ser-Gly*)] (cyclo([azaGly][dL][Nle][dW]H[dS])) 76.7
